# METHOD SUMMARY: inhibitors of E-selectin induction by TNFa, primary screen, imaging, HUVEC, immunofluorescence, MLSMR starter and 10KST1 sets (AID 487);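 also: signal is fraction of cell area covered by stained E-selectin grains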
# TEST CONTEXT: HUVEC TNFalpha-induced E-selectin immunofluorescence imaging, at 2 µM; hits give high values
What inhibition was measured for each of the following?
Note: unit % is implicit; provide only the numeric part.

Fill blank: measured inhibition of the compound `CC(=O)c1cccc(NC(=O)CCOc2ccccc2)c1` is ____.
1.3

Look up inhibition for this compound: CN(C)c1ccc(CNCCC2(O)CCOC(C)(C)C2)cc1 (centres undefined)
-25

Consider the compound shown here: `CC(C)(C)C1=Nn2c(nnc2C2CCCCC2)SC1` What is its recorded inhibition?
-150

Which measured inhibition value corresponds to COc1ccc(Br)cc1S(=O)(=O)N1CC(C)OC(C)C1 (centres undefined) ?
-42.7

Given the entry `Cc1ccc2nc(NC(=O)CN(C)S(=O)(=O)c3cccc4nsnc34)sc2c1` , report its measured inhibition.
-38.2

Fill in: inhibition of `Cc1cc(NC(=O)CSc2nccn2-c2ccc(F)cc2)no1` is ___
-184

Given the compound `Cc1c(C(=O)NCCC2=CCCCC2)oc2ccc(S(=O)(=O)N3CCC4(CC3)OCCO4)cc12` , what is its reported inhibition?
-42.7

Tell me the measured inhibition of `CCN(CC)C(=O)COn1c(SCC(=O)N(CC)CC)nc2ccccc2c1=O` , please.
10.1

// inhibition lookup, key: Cc1cc2c(c(=O)o1)C(CC(C)C)C(C#N)=C(N)O2 (centres undefined)
-144

###

# METHOD SUMMARY: inhibitors of poly I:C-induced TLR3 signaling, primary screen, cell-based, poly I:C stimulus, luciferase, 10K MLSCN set (AID 602277)
# TEST CONTEXT: HEK293-TLR3 RL24 IRF3 luciferase reporter, at 10 µM, hits give high values
Field: inhibition. Provide a value for each of the compounds that follow.
Numbers only here, please. The scale is %.

Any idea what inhibition was measured for O=C1CC(Cc2ccccc2)C(=O)N1CCCn1ccnc1 (configuration not stated) ?
25

I'd like to know its inhibition. The compound in question is `CCNc1ccc(C(=O)OCC)cc1NC(=O)c1cc(S(=O)(=O)N2CCOCC2)ccc1C`
-25.5

Suppose we examine the compound `CCCN(CCC)CCNC(=O)c1cc2c(=O)n(C)c3ccccc3c2n1C` ; what inhibition value has been reported?
68.2

Entry `COc1ccc(NC(=O)CN(c2ccc(C)cc2)S(C)(=O)=O)c(OC)c1` : reported inhibition = ?
25.6

I would be grateful if you could share the reported inhibition for `O=C(CSc1nc(N2CCCCC2)nc(N2CCCCC2)n1)Nc1nccs1` .
52.4

Data request, read-out inhibition, for `CCCCNC(=O)OCCNC(=O)NC`
2.44

# get_value(readout='inhibition', item= `O=C(NC1CCCCC1)c1cc2nc(-c3ccco3)cc(C(F)(F)F)n2n1` )
10.6

Requested field: inhibition. Item: `COc1ccc(Cc2nnc(NC(=O)Cc3cccs3)s2)cc1`
100

# get_value(readout='inhibition', item= CCOC(=O)c1cccnc1SCC(=O)NC(C)CC (configuration not stated) )
17.7

Name the reported inhibition value associated with the compound `CCCOc1ccc2ccccc2c1/C=N/n1cnnc1`
3.78

Which inhibition reading was recorded for the compound `COc1ccc(NC(=O)CSc2nnc(-c3ccccc3C)n2C)cc1` ?
28.1

May I ask what inhibition has been recorded for CC(C)COC(=O)NCC12C=CC(O1)C1C(=O)N(c3ccc(Cl)cc3)C(=O)C12 (configuration not stated) ?
0.93

# inhibition lookup, item `COc1cc(S(=O)(=O)n2nnc3ccccc32)c(OC)cc1Cl`
-7.7

Any idea what its inhibition is? The compound is `COC(=O)CCCCCc1ccc(C(C)=O)s1`
15.4

Fill in the blank: the reported inhibition of `COc1ccc(Cc2noc(-c3ccc(C)cc3)n2)cc1` is ____.
-135

Name the recorded inhibition for `O=C(CSc1nnc(CNC(=O)c2cccs2)o1)Nc1cccc(C(F)(F)F)c1` .
19.8

Param item = `CC(=O)Nc1sc2c(c1CN1CCN(c3ccccn3)CC1)CCCC2` ; retrieve measured inhibition.
12.4

Can you share its inhibition? I mean this compound: `CCCCOn1c(C)c(C(=O)OCC)c2c3nonc3ccc21`
-12.6

Can you share its inhibition? I mean this compound: COC(=O)C1(C#N)C(c2ccccc2)C1(C(=O)OC)C(=O)OC (configuration not stated)
26.1

Consider the compound shown here: CCC(C)(C(=O)NC1CCCC1)N(C(=O)c1cnccn1)c1c(C)n(C)n(-c2ccccc2)c1=O (configuration not stated) What is its recorded inhibition?
9.08

Entry under review: `COc1ccc(-c2nc3cc(NC(=O)Cc4ccc(OC)c(OC)c4)ccc3o2)cc1` . Reported inhibition?
-114

Requested read-out: inhibition. Entry: CC(C)CC1NC2(C(=O)N(C)c3ccccc32)C2C(=O)N(C(C)C)C(=O)C12 (configuration not stated)
-17

If you can, please state the reported inhibition value of `O=C(CCc1nc2ccccc2[nH]1)Nc1ccc2c(c1)OCO2` .
-26.2

May I ask what inhibition has been recorded for `C=CCSc1nc(N)c2c(C)c(C)sc2n1` ?
-46.7

Which inhibition reading was recorded for the compound `CC(C)Cn1c(CN2CCN(c3ccccc3F)CC2)nc2c1c(=O)[nH]c(=O)n2C` ?
19.7

Using the record for `O=C(NC(=O)c1cccc(F)c1)OC[C@@H]1CCCN2CCCC[C@H]12` , report its inhibition.
28.6

Which inhibition is reported for this compound? `CCOc1ccc(C(=O)N2CCN(C(=O)c3ccco3)CC2)cc1OCC`
21.2

# lookup: inhibition of `COc1ccccc1S(=O)(=O)Cc1ccc(C(=O)NCCN2CCCCCC2)o1`
39.3

I'd like to know its inhibition. The compound in question is `CCc1[nH]nc2c1C1(CCN(C(=O)OCc3ccccc3)CC1)C(C#N)=C(N)O2`
13.6

May I ask what inhibition has been recorded for `Cc1cc(-n2c(C)cc(C(=O)CSc3nnnn3-c3ccc(Cl)cc3)c2C)no1` ?
13.2

Fill in: inhibition of `Cc1cccc(-n2c(=O)cc(N3CCN(c4ccc(F)cc4)CC3)[nH]c2=O)c1` is ___
-5.41

// lookup inhibition for `O=C(CCNS(=O)(=O)c1ccc(Cl)cc1)NCc1ccccn1`
21.6

What value of inhibition has been recorded for this entry: `CCOc1cc2[nH]c(=O)n(CCCCC(=O)NCc3ccco3)c(=O)c2cc1OCC`
35.9

Please look up its inhibition: `Cc1noc(C)c1CSc1ccccc1C(=O)N1CCN(c2ccccc2)CC1`
7.95

Recorded inhibition of Cc1cccc2cc(CN(CC3CCCO3)C(=O)c3cnccn3)c(=O)[nH]c12 (configuration not stated) , please.
32.1

Fill blank: measured inhibition of the compound COc1ccc(-c2[nH]nc3c2C(c2ccncc2)C(C#N)=C(N)O3)cc1 (configuration not stated) is ____.
99

So what does the record say about inhibition for CCC1CCCCN1C(=O)CSc1nnc(-c2ccc(OC)cc2)o1 (configuration not stated) ?
-21.5

###

# SUBJECT OF TEST: Voltage-gated potassium channel subunit beta-2 (Rattus norvegicus)
# METHOD SUMMARY: KvBeta enzyme negative modulators, primary screen, biochemical, NADPH fluorescence (AID 622);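 also: slope of raw intensity against log time taken from 70 to 1610 s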
# TEST CONTEXT: recombinant KvBeta, 4-cyanobenzaldehyde reduction, at 10 µM, hits give high values
Can you tell me fluorescence slope for the items I'm about to list?
# answer = number (no unit)

# input molecule: `CCCC(=O)Nc1nnc(CC(=O)OCC)s1` ; wanted: its fluorescence slope
-0.614

Return reported fluorescence slope; argument: `C=CCn1c(=O)c2ccccc2n2c(SCC(=O)Nc3cc(C)on3)nnc12`
-0.605

I'd like to know its fluorescence slope. The molecule in question is CC1=C(C(=O)N2CCCCC2)C(c2cccs2)C2=C(CCCC2=O)N1 (stereo unspecified)
-0.29

Value lookup for fluorescence slope; key = `CCCCCNc1nc(N2CCCC2)c2c(c1C#N)CCN(C)C2`
-0.446

Need fluorescence slope of `COC(=O)CN(c1ccc(C)c(Cl)c1)S(C)(=O)=O` , thanks.
-0.506

Requested read-out: fluorescence slope. Entry: CCC(C)(C)n1nnnc1C(c1ccncc1)N1CCN(c2cccc(OC)c2)CC1 (stereo unspecified)
-0.629

Bench note: what fluorescence slope did `CCCCC(=O)NCCc1cc2ccc(OC)cc2[nH]c1=O` show?
-0.464

Tell me the measured fluorescence slope of `CSc1nncc(=O)[nH]1` , please.
-0.452

What fluorescence slope value was documented for this molecule, `Nc1ccc2oc(-c3cc(Br)ccc3Cl)nc2c1` ?
-0.00932

Sample `OC1C[N+]2(CCCCC2)C1` — what was its fluorescence slope?
-0.497

Dear colleague, I am looking for the recorded fluorescence slope of the following molecule: COC(=O)c1ccc(C2/C(=C(\O)c3cccc(OC)c3)C(=O)C(=O)N2CCCN2CCOCC2)cc1 (stereo unspecified)
-0.507

Would you mind telling me what fluorescence slope value was observed for `O=C(Cc1ccc(Cl)cc1)Nc1cccc(-c2nnc(-c3ccco3)o2)c1` ?
-0.476

So what does the record say about fluorescence slope for `Cn1c(=O)c2c(nc(NCCNC(=O)c3ccco3)n2Cc2ccccc2Cl)n(C)c1=O` ?
-0.354

Query: fluorescence slope; subject: `CCOc1ccccc1NC(=O)CN(C)S(=O)(=O)c1cccc2nsnc12`
-0.329

Suppose we examine the molecule `Cn1c(=O)cc(OCCCC(=O)Nc2ccc3c(c2)OCCO3)c2ccccc21` ; what fluorescence slope value has been reported?
-0.511

If you can, please state the reported fluorescence slope value of `Cc1cc(NC(=O)Cc2cn3ccsc3n2)n(-c2ccccc2)n1` .
-0.308

Would you kindly share the measured fluorescence slope for CC(NC(=O)CSc1nnc(COc2ccccc2)o1)c1ccccc1 (stereo unspecified) ?
-0.453

Recorded fluorescence slope of `O=C(CSc1n[nH]c(-c2ccco2)n1)Nc1sc2c(c1C(=O)Nc1ccccc1)CCCC2` , please.
-0.447

Report fluorescence slope for `CNC(=O)c1ccsc1NC(=O)CN1C(=O)CCC1=O` please.
-0.451

Look up fluorescence slope for this molecule: `CCSc1nnc(NC(=O)C(C(F)(F)F)C(F)(F)F)s1`
-0.449

Entry under review: COCCNC(=O)C(C#N)c1nc2ccccc2nc1N1CCN(Cc2ccc3c(c2)OCO3)CC1 (stereo unspecified) . Reported fluorescence slope?
-0.474

Give its fluorescence slope value. Item: COc1cc(NC(=O)C2C3C=CC(C3)C2C(=O)O)c(OC)cc1Cl (stereo unspecified)
-0.49

Consider the molecule shown here: Cc1nc2sc(C(c3cccs3)N3CCOCC3)c(O)n2n1 (stereo unspecified) What is its recorded fluorescence slope?
-0.553

Requested read-out: fluorescence slope. Entry: `CCOC(=O)N1CCC(NC(=O)Cn2c3c(c(-c4ccccc4Cl)cc2=O)CCC3)CC1`
-0.54

Looking for the measured fluorescence slope of `O=S1(=O)N=C(Nc2nc3c(s2)CCCC3)c2ccccc21` , can you help?
-0.468

What value of fluorescence slope has been reported for the following molecule? `O=C(NC1CC1)c1cccc(Nc2ccc(-c3ccc4c(c3)OCCO4)nn2)c1`
-0.358

Recorded fluorescence slope of `CCOC(=O)c1[nH]c2ccccc2c1N=C(C)N(CC)CC` , please.
-0.521

Could you share which fluorescence slope value was measured for `CCn1c2ccccc2c2cc(Nc3cc(C)nc4ncnn34)ccc21` ?
-0.527

Can you look up the measured fluorescence slope of O=S1(=O)CC(N2CCOCC2)c2ccccc21 (stereo unspecified) for me?
-0.52

Quick one: fluorescence slope of `O=C(NC1CCCCC1)c1ccc(S(=O)(=O)N2CCCCC2)cc1` ?
-0.588

Reported fluorescence slope, molecule CC(=O)C1=C(O)C(=O)N(c2ccc(Br)cn2)C1c1ccccc1F (stereo unspecified) : ____
-0.454
